Measured Metric: melting point

*Q* Provide one value: measured melting point of "CCN1CNS(=O)(=O)c2cc(Oc3cccc(C#N)c3)ccc21"
*A* 143 to 146 °C

*Q* Provide one value: measured melting point of CSc1cccc(Oc2ccc3c(c2)S(=O)(=O)NC2CCCN32)c1 (stereo not drawn)
*A* 160 °C

*Q* Provide one value: measured melting point of O=[N+]([O-])c1cccc(Oc2ccc3c(c2)S(=O)(=O)NC2CCCN32)c1 (stereo not drawn)
*A* 201 to 204 °C

*Q* Provide one value: measured melting point of "CCN1CNS(=O)(=O)c2cc(Oc3ccccc3)ccc21"
*A* 179 to 181 °C

*Q* Provide one value: measured melting point of CCOc1cccc(Oc2ccc3c(c2)S(=O)(=O)NC2CCCN32)c1 (stereo not drawn)
*A* 150 °C

*Q* Provide one value: measured melting point of "CCN1CNS(=O)(=O)c2cc(Oc3ccc(C)c(C)c3)ccc21"
*A* 109 to 111 °C

*Q* Provide one value: measured melting point of COC(=O)c1cccc(Oc2ccc3c(c2)S(=O)(=O)NC2CCCN32)c1 (stereo not drawn)
*A* 223 to 227 °C

*Q* Provide one value: measured melting point of O=S1(=O)NC2CCCN2c2ccc(Oc3cccc(OCc4ccccc4)c3)cc21 (stereo not drawn)
*A* 179 to 182 °C

*Q* Provide one value: measured melting point of N#Cc1ccc(Oc2ccc3c(c2)S(=O)(=O)NC2CCCN32)cc1 (stereo not drawn)
*A* 242 to 245 °C
